B1: HDV Ribozyme (parent)
chain: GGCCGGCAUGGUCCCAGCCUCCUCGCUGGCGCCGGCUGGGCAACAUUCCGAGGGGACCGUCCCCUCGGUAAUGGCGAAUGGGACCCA

variants of: B1; assay: self-cleavage, relative activity (ratio to wild type); higher = more cleavage; co-transcriptional
Record class 1 whenever self-cleavage is at 0.6 or higher; record class 0 when lower.

Task: Confirm if self-cleavage reported for the variant GGGCGGCAUGGUCCCAGCCUCCUCGCUGGCGCCGGCUGGGCAACAUUCCGAAGGGACCGUCCCCUCGGUAAUGGCGAAUGGGACCCA is 0.6 or above.
Output: class 1

Task: Reported self-cleavage at or above 0.6? GGCCGGCAUGGUCCCAGCCUCCUCGCUGGGGCCGGCUGGGCAACAUUCCGAGGGGGCCGUCCCCUCGGUAAUGGCGAAUGGGACCCA
Output: class 0

Task: In plain terms: is recorded self-cleavage at least 0.6 for GGCCGGCAUGGUCCCAGCCUCCUCGCGGGCGCCGGCUGGGCAACAUUCCGAGGGGAUCGUCCCCUCGGUAAUGGCGAAUGGGACCCA ?
Output: class 1

Task: Assess whether reported self-cleavage for GGCCGGCAUGGUCCCAGCCUCCUCGCUGGCGCCGGCGGGGCAACAUUCCGAGGGGACCGUCCCCUCGGUAAUGGCGAAUGGGACCCU sits at 0.6 or higher.
Output: class 0

Task: Evaluate GGCCGGCAUGGUCCCAGCCUCCUCGCUGGCGCCGGCUGGGCCACAUUCCGAGGGGACCGUCCCCUCGGUAAUGGCGAAUUGGACCCA : self-cleavage at minimum 0.6?
Output: class 0

Task: Test whether the variant GGCCGGCAUGGUCGCAGCCUCCUCGCUGGCGCCGGCUGGGCAACAUUCCGAGGGGACCGUCCCCUCGGUAAUGGCGAAUGGCACCCA records self-cleavage of 0.6 or higher.
Output: class 0

Task: In plain terms: is recorded self-cleavage at least 0.6 for GGCCGGCAAGGUCCCAGCCUCCUCGCUGGCGCCGGCUGGGCAACAUUCCGAGGCGACCGUCCCCUCGGUAAUGGCGAAUGGGACCCA ?
Output: class 1

Task: Does self-cleavage meet or surpass 0.6 for GGGCGGCAUGGUCCCAGCCUCCUCGCUGGCGCCGGCUGGGCAACAUUCCGAGGGGACCGUCCCCGCGGUAAUGGCGAAUGGGACCCA ?
Output: class 1

Task: Can GGCAGGCAUGGUCCCAGCCUCCUCGCUGGCGCCGGCUGGGCAACAUUCCGAGGGGACCGUCCCCUCGGUAAUGGCGCAUGGGACCCA be said to have self-cleavage at or above 0.6?
Output: class 0
